The origin of these recorded values is patent US20250288584A1.

- testSummary: Plasma and brain levels (pK/pD analysis)
- Assay type: in vivo, mice
- testParameters: mouse, plasma, subcutaneous, 2.5 mg/kg, Mean Plasma Levels (non-combination) Co. No. 1, Co. No. 1 2.5 mg/kg alone
- Protocol: In various tests, animals were sacrificed following testing, and trunk blood and/or brain tissue (whole brains) was collected for quantification of drug levels. Immediately after testing, animals were decapitated and trunk blood was collected into a BD Vacutainer® tube containing K2EDTA and chilled on ice until centrifugation. Following centrifugation (13000-18000 rpm, 5-7 min), the plasma was removed and transferred to a labeled microcentrifuge tube and stored at −80° C. […]

>  <compound>
Fc1ccc(N2CCN(Cc3ccn4c(CC5CC5)nnc4c3C(F)(F)F)CC2)c(F)c1 [Co. No. 1]

>  <unitOfMeasurement>
ng/mL

>  <concentration at 0.5 h>
438

$$$$
